# reported growth inhibition; entries follow
# test summary: NCI Yeast Anticancer Drug Screen. Data for the sgs1 strain (AID 173);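 note: 0% = growth of vehicle-only control cultures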
# condition: S. cerevisiae sgs1 mutant, at 33.0 µM, hits give high values
About 79,000 compounds went through this panel and 15% of them were active in at least one assay; those are over-represented in the sample as a whole.

{"compound": "O=P(Oc1ccc(Cl)cc1)(Oc1ccc(Cl)cc1)N1CC1", "growth inhibition / %": 13}
{"compound": "CC1=C(N2CC2)C(=O)c2ccccc2C1=O", "growth inhibition / %": 67}
{"compound": "O=[N+]([O-])c1ccc(N2CCC(CCCC3CCN(c4ccc([N+](=O)[O-])cc4[N+](=O)[O-])CC3)CC2)c([N+](=O)[O-])c1", "growth inhibition / %": 21}
{"compound": "CC12CCC(C1)C(C)(C)C2OC(=O)c1ccccc1N (stereo not given)", "growth inhibition / %": -10}
{"compound": "CCC1(O)C(=O)OCc2c1cc1n(c2=O)Cc2c-1nc1ccccc1c2OC (stereo not given)", "growth inhibition / %": 25}
{"compound": "CCNCC(=O)O[C@]1(CC)C(=O)OCc2c1cc1n(c2=O)Cc2cc3ccccc3nc2-1", "growth inhibition / %": 5}
{"compound": "O=[N+]([O-])c1cc(S(=O)(=O)F)ccc1Cl", "growth inhibition / %": 97}
{"compound": "Cn1cnc(N)c1C(=N)[Se]", "growth inhibition / %": 84}
{"compound": "CC(Cc1ccccc1)N(C)Cc1nc(C2CCC([N+](=O)[O-])O2)no1 (stereo not given)", "growth inhibition / %": 50}
{"compound": "OCC(O)C(O)CO (stereo not given) (tested in a mixture with another compound)", "growth inhibition / %": 2}

----------
# test summary: NCI Yeast Anticancer Drug Screen. Data for the rad50 strain (AID 155);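 note: 0% = growth of vehicle-only cultures of the same strain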
# condition: S. cerevisiae rad50 strain growth inhibition; at 50.0 µM (retest, dose inferred, filed as 5.0)
Compounds without any hit were thinned out: in the full panel of roughly 79,000, 15% have a hit. The source made the active and inactive calls. No stated cut-off is given here; in the data, active means growth inhibition above about 70%; inactive means the rest.
Possible outcomes: label 1 for active, label 0 for inactive

{"compound": "CN1CN(c2ccccc2)C2(CCN(C3Nc4ccccc4O3)CC2)C1=O (stereo unspecified)", "discrete label": "label 0"}
{"compound": "[C](#Cc1ccccc1)[Hg][C]#Cc1ccccc1", "discrete label": "label 1"}
{"compound": "CC(C)[O-].CC(C)[O-].[O-]c1cccc2cccnc12.[O-]c1cccc2cccnc12.[Ti+4]", "discrete label": "label 0"}
{"compound": "CCCCCCCCCCCCN1CC1", "discrete label": "label 0"}
{"compound": "Clc1c(CI)ccc(CI)c1Cl", "discrete label": "label 1"}
{"compound": "COc1cc(N(CCCl)CCCl)ccc1C=Nc1cccc(Cl)c1", "discrete label": "label 0"}

----------
# test summary: NCI Yeast Anticancer Drug Screen. Data for the mlh1 rad18 strain (AID 175)
# condition: S. cerevisiae mlh1 rad18 strain growth inhibition; at 50.0 µM (retest, dose inferred, filed as 5.0); hits give high values
# Method: Growth inhibition of yeast strains with defined genetic alterations is measured as a screen for potential anti-cancer activity. Selected strains with alterations in DNA damage repair or cell cycle control were exposed to compounds and growth inhibition was measured relative to vehicle treated controls. The strain used in this assay is mlh1 rad18
About 79,000 compounds went through this panel and 15% of them were active in at least one assay; those are over-represented in the sample as a whole.
Our labelling divides records by growth inhibition into ranges: I = under 30%, II = from 30% up to 90%, III = 90% and over

{"compound": "Cc1ccc(P(=O)(c2ccc(C)cc2)c2ccc(C)cc2)cc1.Cc1ccc(P(=O)(c2ccc(C)cc2)c2ccc(C)cc2)cc1.[Cl][Sn]([Cl])([Cl])[Cl]", "discrete label": "I"}
{"compound": "O=C(N/N=C/c1ccc(F)cc1)c1ccc(N(CCCl)CCCl)cc1", "discrete label": "I"}
{"compound": "COC(=O)C(Cl)(Br)CCl (stereo not given)", "discrete label": "II"}
{"compound": "CCOC(=O)NC(=S)[S][Sb]([S]C(=S)NC(=O)OCC)[S]c1nc2ccc(N=Nc3ccc(NS(=O)(=O)c4ccc(NC(=O)C(N5CC5)(N5CC5)N5CC5)cc4)cc3)cc2s1", "discrete label": "III"}
{"compound": "CCN(CC)CCBr", "discrete label": "I"}
{"compound": "S=P(S)(Oc1ccccc1)Oc1ccccc1", "discrete label": "I"}
{"compound": "Oc1cccnc1[Se]", "discrete label": "II"}
{"compound": "Nc1c(Br)cc(Br)c2c1C(=O)c1ccccc1C2=O", "discrete label": "I"}
{"compound": "Nc1nc(CCl)cs1", "discrete label": "I"}
{"compound": "CN(C)c1ccc(/C=C/c2cc[n+]3ccsc3n2)cc1", "discrete label": "II"}
{"compound": "COc1ccc(Br)cc1/C=C/[N+](=O)[O-]", "discrete label": "III"}
{"compound": "ClCCN(CCCl)CCN1c2ccccc2Sc2ccc3ccccc3c21", "discrete label": "II"}
{"compound": "CC1(C)OC2OC3C(CN(CCCl)Cc4ccccc4)OC(c4ccccc4)OC3C2O1 (stereo not given)", "discrete label": "II"}
{"compound": "N#CC(C#N)=Cc1cc(Cl)ccc1O", "discrete label": "II"}
{"compound": "CN1CN(c2ccccc2)C2(CCN(C3Nc4ccccc4O3)CC2)C1=O (stereo not given)", "discrete label": "II"}
{"compound": "O=C(O)CP(=O)(c1ccccc1)c1ccccc1.O=C(O)CP(=O)(c1ccccc1)c1ccccc1.[Cd]", "discrete label": "II"}
{"compound": "COC(=O)CCCCCCCCC[CH2][Hg][Cl]", "discrete label": "III"}
{"compound": "CCCCCCCCCCCCC(=O)[O][Hg][c]1ccccc1", "discrete label": "III"}
{"compound": "Nc1ccc(Cl)cc1C(=O)c1ccccc1Cl", "discrete label": "III"}
{"compound": "C=C[C@H]1CN2CC[C@H]1C[C@@H]2[C@@H](O)c1ccnc2ccccc12", "discrete label": "I"}
{"compound": "CC(C)C(=O)CP(=O)(O)O", "discrete label": "I"}
{"compound": "O=[N+]([O-])c1oc2ccc3ccccc3c2c1CCO", "discrete label": "III"}
{"compound": "CSc1ccc(NC(=O)C2c3[nH]c4ccccc4c3C3CCC(C(C)(C)C)CC3C2C(=O)O)cc1 (stereo not given)", "discrete label": "I"}
{"compound": "C[C@H]1C/C=C/[C@H]2[C@@H]3O[C@]3(C)[C@@H](C)[C@H]3[C@H](Cc4ccccc4)NC(=O)[C@]32OC(=O)O/C=C/[C@@](C)(O)C1=O", "discrete label": "II"}
{"compound": "Oc1cc[c]([Hg][Cl])cc1", "discrete label": "III"}
{"compound": "CCN(CC)CC(=O)c1ccc2c(ccc3ccccc32)c1", "discrete label": "III"}
{"compound": "[CH3][Sn]([Br])([Br])[CH2]CCCBr", "discrete label": "II"}
{"compound": "Nc1ccc(Cl)cc1C(=O)c1ccccc1", "discrete label": "II"}
{"compound": "CCCCCCCCCCCCCCCCP(=O)(O)OP(=O)(O)OCC1OC(n2ccc(N)nc2=O)C(O)C1O (stereo not given)", "discrete label": "I"}
{"compound": "O=C(O)C1C2c3ccccc3C(c3ccccc32)C1Br (stereo not given)", "discrete label": "I"}
{"compound": "Nc1c(Cl)cccc1C(=O)O", "discrete label": "I"}
{"compound": "N#C[S-].[Nd+3].c1cnc2c(c1)ccc1cccnc12.c1cnc2c(c1)ccc1cccnc12.c1cnc2c(c1)ccc1cccnc12", "discrete label": "III"}
{"compound": "O=S(=O)([O-])[O-].[Fe+2].c1ccc(/C(=N\\Nc2ccccn2)c2ccccn2)cc1", "discrete label": "I"}
{"compound": "CCC(C)c1cc([N+](=O)[O-])cc([N+](=O)[O-])c1O (stereo not given)", "discrete label": "II"}
{"compound": "CCC/C=[CH]/[Hg][Cl]", "discrete label": "III"}
{"compound": "CCOP(=O)(OCC)/C(C#N)=C/c1cccc(Cl)c1", "discrete label": "III"}
{"compound": "CN(C)C(=O)Oc1c(Cl)cc(Cl)c(Cl)c1Cl", "discrete label": "I"}
{"compound": "Clc1ccc(CCN2CCOCC2)c(Cl)c1", "discrete label": "II"}
{"compound": "FC1(F)C(Cl)=[C]([Hg][C]2=C(Cl)C(F)(F)C(F)(F)C(F)(F)C2(F)F)C(F)(F)C(F)(F)C1(F)F", "discrete label": "III"}
{"compound": "Oc1cccc2nc3ccccc3nc12", "discrete label": "II"}
{"compound": "CC(NCCN(C)C)C1CC2CCCCN2C1 (stereo not given)", "discrete label": "I"}
{"compound": "C[C@]12CC[C@H]3[C@@H](C[C@@H](F)C4=CC(=O)CC[C@@]43C)[C@@H]1CC[C@@H]2O", "discrete label": "II"}
